Let's look at some compounds and their measured IC50.
tested_on: Histone deacetylase
assay_comment: Inhibition of in vitro enzyme activity measured in partially purified rat liver Histone deacetylase preparation
Assay type: tissue-based
The reply should be a number in nM, with the unit left off.

chem_smiles	unit_annotation	IC50
COC(=O)[C@@H](Cc1ccccc1)NC(=O)CCCCCCC(=O)NO	nM	880

IC50 for `O=C(CCCCCCC(=O)N[C@@H](Cc1ccccc1)C(=O)NCCCc1ccccc1)NO` is 1010

Lab book: IC50 of `COC(=O)[C@H](Cc1ccccc1)NC(=O)CCCCCCC(=O)NO` noted as 800

In plain terms, `O=C(CCCCCCC(=O)N[C@H](Cc1ccccc1)C(=O)NCCc1ccccc1)NO` has a documented IC50 of 390

* * *

tested_on: Histone deacetylase
assay_comment: Inhibition of in vitro enzyme activity measured in partially purified rat liver Histone deacetylase preparation
Format: tissue-based
metric_name: IC50 (nM)
Just the number please, in nM, no unit attached.

chem_smiles	tested_on	unit_annotation	recorded_result
O=C(CCCCCCC(=O)N[C@@H](Cc1cccc2ccccc12)C(=O)NCCc1ccccc1)NO	Histone deacetylase	nM	310
O=C(CCCCCCC(=O)N[C@@H](Cc1ccccc1)C(=O)N1CCCC1)NO	Histone deacetylase	nM	330

The recorded IC50 with Histone deacetylase for `COC(=O)[C@H](Cc1ccc(-c2ccccc2)cc1)NC(=O)CCCCCCC(=O)NO` was 290

// molecule `COC(=O)[C@H](Cc1ccc2ccccc2c1)NC(=O)CCCCCCC(=O)NO` , assay Histone deacetylase, IC50 value: 510
